Reference for the values: ChEMBL document CHEMBL4017517

Molecular target: Histone deacetylase 8 (Homo sapiens, UniProt Q9BY41)
Sequence (Q9BY41 whole entry): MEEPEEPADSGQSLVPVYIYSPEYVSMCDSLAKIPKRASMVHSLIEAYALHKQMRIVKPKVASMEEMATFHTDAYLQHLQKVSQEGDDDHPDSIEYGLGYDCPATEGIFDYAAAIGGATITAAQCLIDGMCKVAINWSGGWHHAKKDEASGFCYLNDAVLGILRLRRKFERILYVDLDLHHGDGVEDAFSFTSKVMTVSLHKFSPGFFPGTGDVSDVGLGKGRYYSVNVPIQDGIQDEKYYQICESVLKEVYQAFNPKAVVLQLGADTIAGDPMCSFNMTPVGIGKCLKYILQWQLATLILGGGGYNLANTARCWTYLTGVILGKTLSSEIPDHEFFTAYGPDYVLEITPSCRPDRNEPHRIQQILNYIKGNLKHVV
Experiment: Inhibition of GST tagged full length human recombinant HDAC8 (H90 to 30H) expressed in Baculovirus infected Sf9 insect cells using Ac-Leu-Gly-Lys(Tfa)-AMC as substrate preincubated for 5 mins followed by substrate addition measured after 30 mins by fluorescence assay
property-label: IC50

Exercise: Form field: reported IC50 of Nc1ccccc1NC(=O)c1ccc(Cn2cc(-c3ccc(C(=O)NCc4cccnc4)cc3)nn2)cc1
Solution: > 100 µM

---

Exercise: state measured IC50 for each of the compounds provided.
Tested on: HCT-116
Experiment: cells
Type: functional, cell-based
Settings: Homo sapiens, HCT-116, 72 h
Response body: numeric value in µM, unit text excluded.

Exercise: For the record CC(=O)Nc1ccc(C(=O)Nc2ccccc2N)cc1 , what value of IC50 is listed for HCT-116?
Solution: 10

Exercise: For the record Nc1ccccc1NC(=O)c1ccc(NC(=S)NCc2ccc3c(c2)OCO3)cc1 , what value of IC50 is listed for HCT-116?
Solution: 8.4

Exercise: For the record Nc1ccccc1NC(=O)c1ccc(CNC(=O)c2cc3ccncc3[nH]2)cc1 , what value of IC50 is listed for HCT-116?
Solution: 3.3

Exercise: For the record Nc1ccccc1NC(=O)c1ccc(NC(=S)NCc2cccc(F)c2)cc1 , what value of IC50 is listed for HCT-116?
Solution: 5.9

Exercise: For the record Nc1ccccc1NC(=O)c1ccc(NC(=S)NCc2ccc(F)cc2)cc1 , what value of IC50 is listed for HCT-116?
Solution: 15
